tested on: 786-0; test: Growth inhibition of human 786-0 cells at 10 uM incubated for 48 hrs by sulforhodamine B assay relative to control; type: functional; settings: read-out: GI
Item-by-item account of inhibition of growth at 10 µM
Numbers only; they are read as %.

1. O=C(CN(c1ccccc1)c1ccccc1)Nc1ccc(-c2nc3ccccc3s2)cc1    -1.87

What does the data say about its inhibition of growth at 10 µM? Entry: "O=C(Cn1cnc2ccccc21)Nc1ccc(-c2nc3ccccc3s2)cc1"
20.5

What does the data say about its inhibition of growth at 10 µM? Entry: "O=C(Cn1nnc2ccccc21)Nc1ccc(-c2nc3ccccc3s2)cc1"
5.01

---

tested on: SK-OV-3; test: Growth inhibition of human SK-OV-3 cells at 10 uM incubated for 48 hrs by sulforhodamine B assay relative to control; assay type: functional; conditions: read-out: GI
Item-by-item account of inhibition of growth at 10 µM
Numbers only; they are read as %.

Previously resolved entries follow.
1. NS(=O)(=O)c1ccc(NCC(=O)Nc2ccc(-c3nc4ccccc4s3)cc2)cc1    -5.77
2. Cc1ccc(NCC(=O)Nc2ccc(-c3nc4ccccc4s3)cc2)cc1    -13.1
3. O=C(Cn1ccnc1)Nc1ccc(-c2nc3ccccc3s2)cc1    12.2
4. O=C(Cn1ccc2ccccc21)Nc1ccc(-c2nc3ccccc3s2)cc1    -1.65
5. Cc1cc(C)n(CC(=O)Nc2ccc(-c3nc4ccccc4s3)cc2)n1    -14
6. Cc1cc(NCC(=O)Nc2ccc(-c3nc4ccccc4s3)cc2)no1    -19.7
7. COc1ccc(NCC(=O)Nc2ccc(-c3nc4ccccc4s3)cc2)cc1    -7.58
8. O=C(CNc1ccc(Cl)cc1)Nc1ccc(-c2nc3ccccc3s2)cc1    10.2

Item: "O=C(CNC1CCCCC1)Nc1ccc(-c2nc3ccccc3s2)cc1" Test system: SK-OV-3 Read-out: inhibition of growth at 10 µM Value: ?
9.23

Item: "O=C(Cn1cnc2ccccc21)Nc1ccc(-c2nc3ccccc3s2)cc1" Test system: SK-OV-3 Read-out: inhibition of growth at 10 µM Value: ?
15.1

Item: "O=C(Cn1c2ccccc2c2ccccc21)Nc1ccc(-c2nc3ccccc3s2)cc1" Test system: SK-OV-3 Read-out: inhibition of growth at 10 µM Value: ?
-7.77

---

Item-by-item account of inhibition of growth at 10 µM
system: KM12; experiment: Growth inhibition of human KM12 cells at 10 uM incubated for 48 hrs by sulforhodamine B assay relative to control; assay type: functional; conditions: read-out: GI
Numbers only; they are read as %.

1. O=C(CN1CCCCC1)Nc1ccc(-c2nc3ccccc3s2)cc1    3.6
2. O=C(Cn1ccnc1)Nc1ccc(-c2nc3ccccc3s2)cc1    15.6
3. O=C(CNC1CCCCC1)Nc1ccc(-c2nc3ccccc3s2)cc1    16.1
4. Cc1cc(NCC(=O)Nc2ccc(-c3nc4ccccc4s3)cc2)no1    -1.64
5. O=C(CNc1nnc(-c2ccc(Cl)cc2)o1)Nc1ccc(-c2nc3ccccc3s2)cc1    2.99
6. Cc1ccc(NCC(=O)Nc2ccc(-c3nc4ccccc4s3)cc2)cc1    0.91

What does the data say about its inhibition of growth at 10 µM? Entry: "CN1CCN(CC(=O)Nc2ccc(-c3nc4ccccc4s3)cc2)CC1"
14.4

What does the data say about its inhibition of growth at 10 µM? Entry: "O=C(CN(c1ccccc1)c1ccccc1)Nc1ccc(-c2nc3ccccc3s2)cc1"
-6.94

What does the data say about its inhibition of growth at 10 µM? Entry: "COc1ccc(NCC(=O)Nc2ccc(-c3nc4ccccc4s3)cc2)cc1"
3.03

What does the data say about its inhibition of growth at 10 µM? Entry: "O=C(CNc1ccccc1)Nc1ccc(-c2nc3ccccc3s2)cc1"
5.48

---

tested on: NCI-H460; assay: Growth inhibition of human NCI-H460 cells at 10 uM incubated for 48 hrs by sulforhodamine B assay relative to control; format: functional; conditions: read-out: GI
property.measured: inhibition of growth at 10 µM (%)
Numbers only; they are read as %.

1) O=C(CN1C(=O)C(=O)c2ccccc21)Nc1ccc(-c2nc3ccccc3s2)cc1    -2.87
2) O=C(CNC1CCCCC1)Nc1ccc(-c2nc3ccccc3s2)cc1    8.69

What does the data say about its inhibition of growth at 10 µM? Entry: "O=C(Cn1nnc2ccccc21)Nc1ccc(-c2nc3ccccc3s2)cc1"
17

---

system: CCRF-CEM; assay: Growth inhibition of human CCRF-CEM cells at 10 uM incubated for 48 hrs by sulforhodamine B assay relative to control; format: functional; conditions: read-out: GI
Item-by-item account of inhibition of growth at 10 µM
Numbers only; they are read as %.

1) O=C(CN1CCCCC1)Nc1ccc(-c2nc3ccccc3s2)cc1    10.4
2) O=C(CN1CCOCC1)Nc1ccc(-c2nc3ccccc3s2)cc1    4.51

What does the data say about its inhibition of growth at 10 µM? Entry: "O=C(Cn1nnc2ccccc21)Nc1ccc(-c2nc3ccccc3s2)cc1"
30.3

What does the data say about its inhibition of growth at 10 µM? Entry: "O=C(Cn1ccnc1)Nc1ccc(-c2nc3ccccc3s2)cc1"
30.9

What does the data say about its inhibition of growth at 10 µM? Entry: "O=C(CNCc1ccccc1)Nc1ccc(-c2nc3ccccc3s2)cc1"
9.29

What does the data say about its inhibition of growth at 10 µM? Entry: "O=C(Cn1cncn1)Nc1ccc(-c2nc3ccccc3s2)cc1"
-4.97

---

Item-by-item account of inhibition of growth at 10 µM
test system: HCC 2998; assay: Growth inhibition of human HCC 2998 cells at 10 uM incubated for 48 hrs by sulforhodamine B assay relative to control; format: functional; conditions: read-out: GI
Numbers only; they are read as %.

Previously resolved entries follow.
1) Cc1ccc(NCC(=O)Nc2ccc(-c3nc4ccccc4s3)cc2)cc1    17
2) O=C(Cn1cncn1)Nc1ccc(-c2nc3ccccc3s2)cc1    6.06

Now take the following compound into account.
What does the data say about its inhibition of growth at 10 µM? Entry: "O=C(Cn1ccnc1)Nc1ccc(-c2nc3ccccc3s2)cc1"
5.1

---

test system: RXF 393; experiment: Growth inhibition of human RXF 393 cells at 10 uM incubated for 48 hrs by sulforhodamine B assay relative to control; assay type: functional; settings: read-out: GI
Item-by-item account of inhibition of growth at 10 µM
Numbers only; they are read as %.

Previously resolved entries follow.
1. O=C(Cn1c2ccccc2c2ccccc21)Nc1ccc(-c2nc3ccccc3s2)cc1    -10.8
2. O=C(CNc1nnc(-c2ccc(Cl)cc2)o1)Nc1ccc(-c2nc3ccccc3s2)cc1    -0.2
3. O=C(CNC1CCCCC1)Nc1ccc(-c2nc3ccccc3s2)cc1    31.5
4. O=C(CNc1ccccc1)Nc1ccc(-c2nc3ccccc3s2)cc1    5.43
5. O=C(CN1CCCCC1)Nc1ccc(-c2nc3ccccc3s2)cc1    13
6. O=C(Cn1cnc2ccccc21)Nc1ccc(-c2nc3ccccc3s2)cc1    6.89

Item: "O=C(Cn1ccc2ccccc21)Nc1ccc(-c2nc3ccccc3s2)cc1" Test system: RXF 393 Read-out: inhibition of growth at 10 µM Value: ?
-12.6

Item: "O=C(CN1CCOCC1)Nc1ccc(-c2nc3ccccc3s2)cc1" Test system: RXF 393 Read-out: inhibition of growth at 10 µM Value: ?
-11.4

Item: "O=C(CNCc1ccccc1)Nc1ccc(-c2nc3ccccc3s2)cc1" Test system: RXF 393 Read-out: inhibition of growth at 10 µM Value: ?
-3.76

Item: "O=C(CNc1nc(-c2ccc(Cl)cc2)cs1)Nc1ccc(-c2nc3ccccc3s2)cc1" Test system: RXF 393 Read-out: inhibition of growth at 10 µM Value: ?
-6.02

Item: "O=C(CNc1nc2ccccc2s1)Nc1ccc(-c2nc3ccccc3s2)cc1" Test system: RXF 393 Read-out: inhibition of growth at 10 µM Value: ?
-12.5

Item: "O=C(Cn1nnc2ccccc21)Nc1ccc(-c2nc3ccccc3s2)cc1" Test system: RXF 393 Read-out: inhibition of growth at 10 µM Value: ?
0.05

Item: "NS(=O)(=O)c1ccc(NCC(=O)Nc2ccc(-c3nc4ccccc4s3)cc2)cc1" Test system: RXF 393 Read-out: inhibition of growth at 10 µM Value: ?
0.08

Item: "CN1CCN(CC(=O)Nc2ccc(-c3nc4ccccc4s3)cc2)CC1" Test system: RXF 393 Read-out: inhibition of growth at 10 µM Value: ?
45.7

Item: "O=C(CN(c1ccccc1)c1ccccc1)Nc1ccc(-c2nc3ccccc3s2)cc1" Test system: RXF 393 Read-out: inhibition of growth at 10 µM Value: ?
-5.12

---

Item-by-item account of inhibition of growth at 10 µM
test system: UACC-257; experiment: Growth inhibition of human UACC-257 cells at 10 uM incubated for 48 hrs by sulforhodamine B assay relative to control; format: functional; settings: read-out: GI
Numbers only; they are read as %.

1. O=C(CN(c1ccccc1)c1ccccc1)Nc1ccc(-c2nc3ccccc3s2)cc1    -8.16

What does the data say about its inhibition of growth at 10 µM? Entry: "O=C(CNc1ccccc1)Nc1ccc(-c2nc3ccccc3s2)cc1"
-1.98

What does the data say about its inhibition of growth at 10 µM? Entry: "O=C(CNC1CCCCC1)Nc1ccc(-c2nc3ccccc3s2)cc1"
-4.65

What does the data say about its inhibition of growth at 10 µM? Entry: "O=C(Cn1cnc2ccccc21)Nc1ccc(-c2nc3ccccc3s2)cc1"
37.9

What does the data say about its inhibition of growth at 10 µM? Entry: "O=C(CN1CCCCC1)Nc1ccc(-c2nc3ccccc3s2)cc1"
2.05

What does the data say about its inhibition of growth at 10 µM? Entry: "O=C(CNc1nc2ccccc2s1)Nc1ccc(-c2nc3ccccc3s2)cc1"
-1.9

Origin of measurements: ChEMBL document CHEMBL4765227
